Target: noradrenaline (norepinephrine) transporter (NET) (Homo sapiens, UniProt P23975)
Sequence (P23975 whole entry): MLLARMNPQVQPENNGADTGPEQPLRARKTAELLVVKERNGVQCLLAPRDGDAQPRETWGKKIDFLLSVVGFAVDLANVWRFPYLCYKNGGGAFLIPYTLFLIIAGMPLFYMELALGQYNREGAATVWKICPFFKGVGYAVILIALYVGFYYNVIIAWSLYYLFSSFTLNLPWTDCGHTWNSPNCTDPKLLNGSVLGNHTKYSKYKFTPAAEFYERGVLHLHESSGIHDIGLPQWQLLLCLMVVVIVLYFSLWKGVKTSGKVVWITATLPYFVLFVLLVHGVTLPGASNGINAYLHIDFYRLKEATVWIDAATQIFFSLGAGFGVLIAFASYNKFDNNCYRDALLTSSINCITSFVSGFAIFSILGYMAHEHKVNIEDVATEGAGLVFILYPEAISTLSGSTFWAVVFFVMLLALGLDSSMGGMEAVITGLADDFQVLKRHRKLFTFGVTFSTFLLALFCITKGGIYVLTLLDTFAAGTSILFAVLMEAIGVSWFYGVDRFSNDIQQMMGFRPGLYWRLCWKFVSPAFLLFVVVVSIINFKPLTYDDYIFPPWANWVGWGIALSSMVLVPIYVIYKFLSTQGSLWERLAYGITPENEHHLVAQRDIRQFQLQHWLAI
Assay: Radioligand displacement, NET
Assay type: binding
Exercise: state measured Ki for each of the compounds provided.

Quick one: Ki of "Oc1ccc2c3c1O[C@H]1c4[nH]c5c(c4C[C@@]4(O)[C@@H](C2)N(CC2CC2)CC[C@]314)C[C@@]1(O)[C@H]2Cc3ccc(O)c4c3[C@@]1(CCN2CC1CC1)[C@H]5O4" ?
≥ 10 µM

Continue with "N=C(N)Nc1ccc2[nH]c3c(c2c1)C[C@@]1(O)[C@H]2Cc4ccc(O)c5c4[C@@]1(CCN2CC1CC1)[C@H]3O5"
≥ 10 µM

Reference source: paper PMC3747596
